target: recombinant human α1D receptor (Homo sapiens, UniProt P25100); construct: expressed in transfected cells; host or cells: HEK293; assay: Adrenergic α1D selectivity binding assay ([3H]-prazosin); settings: inhibition of [3H]-prazosin binding, HEK293 membranes, read-out: α1 bind pIC50 (converted)
Sequence (P25100 whole entry): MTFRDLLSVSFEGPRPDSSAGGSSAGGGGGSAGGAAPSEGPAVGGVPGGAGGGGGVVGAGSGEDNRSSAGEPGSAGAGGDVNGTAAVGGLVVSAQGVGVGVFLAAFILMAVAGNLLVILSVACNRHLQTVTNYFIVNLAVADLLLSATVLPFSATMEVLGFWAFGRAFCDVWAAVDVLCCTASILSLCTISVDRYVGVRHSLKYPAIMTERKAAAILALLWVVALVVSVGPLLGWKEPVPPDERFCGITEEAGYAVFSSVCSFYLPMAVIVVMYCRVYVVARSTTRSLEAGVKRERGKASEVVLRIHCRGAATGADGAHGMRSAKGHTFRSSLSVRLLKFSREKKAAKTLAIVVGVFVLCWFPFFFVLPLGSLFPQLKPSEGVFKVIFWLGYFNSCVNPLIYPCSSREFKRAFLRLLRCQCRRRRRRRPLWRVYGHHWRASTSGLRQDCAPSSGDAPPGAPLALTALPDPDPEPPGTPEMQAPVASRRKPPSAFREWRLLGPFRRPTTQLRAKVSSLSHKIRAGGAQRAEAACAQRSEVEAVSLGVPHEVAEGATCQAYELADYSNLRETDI
Structures can show the parent of a compound that is named as a salt.
Recorded IC50 for the following compounds
Kindly provide the numeric value in µM only, without the unit symbol.

Some compounds with known IC50 results, for comparison:
>  <compound>
Cc1nc(-c2cccc(CCOCCC(=O)N(CCNCCc3ccc(O)c4c3OCC(=O)N4)C3CCCCC3)c2)[nH]c1C

>  <test-readout>
IC50

>  <readout-number>
0.631

$$$$
>  <compound>
CCn1cc(-c2cccc(CCOCCC(=O)N(CCNCCc3ccc(O)c4c3OCC(=O)N4)C3CCCCC3)c2)cn1

>  <test-readout>
IC50

>  <readout-number>
0.794

$$$$

# IC50 (compound: CCCn1cc(-c2cccc(CCOCCC(=O)N(CCNCCc3ccc(O)c4c3OCC(=O)N4)C3CCCC3)c2)cn1 [Example 18, Trifluoroacetic Acid Salt] ) is 1

# IC50 (compound: COCCn1cc(-c2cccc(CCOCCC(=O)N(CCNCCc3ccc(O)c4c3OCC(=O)N4)C3CCCCC3)c2)cn1 [Example 36, Trifluoroacetic Acid Salt] ) is 2.51

# IC50 (compound: CC(C)[C@@H](C)N(CCNCCc1ccc(O)c2c1OCC(=O)N2)C(=O)CCOCCc1cccc(-c2cnn(C)c2)c1 [Example 09, Trifluoroacetic Acid Salt] ) is 1

# IC50 (compound: CC(C)[C@@H](C)N(CCNCCc1ccc(O)c2c1OCC(=O)N2)C(=O)CCOCCc1cccc(-c2cnn(C(C)C)c2)c1 [Example 20, Trifluoroacetic Acid Salt] ) is 0.501

====

target: Adrenergic β2 (Homo sapiens, UniProt P07550); construct: Adherent H292 cells were removed from tissue culture flasks; endogenous in cells; host or cells: H292 cells; assay: Adrenergic β2 mediated cAMP production in H292 cells (AlphaScreen cAMP detection); type: cell-based; conditions: cAMP production, 60 min at room temperature, 300 μM rolipram, read-out: β2 pEC50 (converted)
Sequence (P07550 whole entry): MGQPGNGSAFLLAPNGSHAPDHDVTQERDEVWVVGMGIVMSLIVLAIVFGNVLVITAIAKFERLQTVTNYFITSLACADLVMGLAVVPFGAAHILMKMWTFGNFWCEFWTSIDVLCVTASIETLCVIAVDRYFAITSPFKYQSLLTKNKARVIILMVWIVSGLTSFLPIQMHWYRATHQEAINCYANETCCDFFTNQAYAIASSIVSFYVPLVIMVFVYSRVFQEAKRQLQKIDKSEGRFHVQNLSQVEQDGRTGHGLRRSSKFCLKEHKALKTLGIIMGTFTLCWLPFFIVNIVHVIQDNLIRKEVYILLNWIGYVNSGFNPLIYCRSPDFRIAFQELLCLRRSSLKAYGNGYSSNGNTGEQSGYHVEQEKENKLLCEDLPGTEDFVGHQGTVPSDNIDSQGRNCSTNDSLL
Counter-ions that a name gives are not always drawn.
Recorded EC50 for the following compounds
Kindly provide the numeric value in nM only, without the unit symbol.

# EC50 (compound: CCCC[C@@H](C)N(CCNCCc1ccc(O)c2c1OCC(=O)N2)C(=O)CCOCCc1cccc(-c2cnn(C)c2)c1 [Example 30, Trifluoroacetic Acid Salt] ) is 12.6

# EC50 (compound: Cn1nnnc1-c1cccc(CCOCCC(=O)N(CCNCCc2ccc(O)c3c2OCC(=O)N3)C2CCCCC2)c1 [Example 08, Trifluoroacetic Acid Salt] ) is 15.8

# EC50 (compound: O=C1COc2c(CCNCCN(C(=O)CCOCCc3cccc(-c4nn[nH]n4)c3)C3CCCCC3)ccc(O)c2N1 [Example 15, Trifluoroacetic Acid Salt] ) is 12.6

# EC50 (compound: Cn1nnc(-c2cccc(CCOCCC(=O)N(CCNCCc3ccc(O)c4c3OCC(=O)N4)C3CCCCC3)c2)n1 [Example 07, Trifluoroacetic Acid Salt] ) is 15.8

# EC50 (compound: Cn1cc(-c2cccc(CCOCCC(=O)N(CCNCCc3ccc(O)c4c3OCC(=O)N4)C3CCCCC3)c2)nn1 [Example 05, Trifluoroacetic Acid Salt] ) is 7.94
